# TESTED_SYSTEM: Inhibitor of nuclear factor kappa-B kinase subunit epsilon (Homo sapiens, UniProt Q14164); note: in the data inactive means no Kd found up to 30 µM
# Sequence (Q14164 whole entry): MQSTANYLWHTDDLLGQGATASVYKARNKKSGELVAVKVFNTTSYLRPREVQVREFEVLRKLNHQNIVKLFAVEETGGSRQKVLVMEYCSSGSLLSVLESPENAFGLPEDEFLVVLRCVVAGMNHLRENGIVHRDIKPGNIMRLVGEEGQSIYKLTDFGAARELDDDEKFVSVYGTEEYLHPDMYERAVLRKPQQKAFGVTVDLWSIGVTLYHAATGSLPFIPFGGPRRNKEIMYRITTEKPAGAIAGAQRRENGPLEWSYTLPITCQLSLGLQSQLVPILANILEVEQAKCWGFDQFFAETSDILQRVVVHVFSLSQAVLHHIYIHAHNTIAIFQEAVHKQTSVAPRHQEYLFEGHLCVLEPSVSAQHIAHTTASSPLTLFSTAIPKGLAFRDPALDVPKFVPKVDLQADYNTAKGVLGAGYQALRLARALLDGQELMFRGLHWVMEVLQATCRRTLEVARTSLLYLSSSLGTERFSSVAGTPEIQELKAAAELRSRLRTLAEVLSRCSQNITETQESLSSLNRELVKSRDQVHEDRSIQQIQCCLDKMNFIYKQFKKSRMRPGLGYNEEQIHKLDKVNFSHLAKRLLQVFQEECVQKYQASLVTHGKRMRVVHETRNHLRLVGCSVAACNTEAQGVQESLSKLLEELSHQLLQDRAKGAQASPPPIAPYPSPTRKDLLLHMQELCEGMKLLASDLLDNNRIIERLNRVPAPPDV
Calls of active or inactive are those of the source.
Hi! Could you answer with just one of these? 1 (yes) for active, 0 (no) for inactive

CN(C)C(=O)c1cc2cnc(Nc3ccc(N4CCNCC4)cn3)nc2n1C1CCCC1	0 (no)

Ask | Each molecule tested received a call. Report the one for `O=c1sn(-c2cccc3ccccc23)c(=O)n1Cc1ccccc1` .
Reply | 0 (no)

Ask | Each molecule tested received a call. Report the one for `CCCS(=O)(=O)Nc1ccc(F)c(C(=O)c2c[nH]c3ncc(-c4ccc(Cl)cc4)cc23)c1F` .
Reply | 0 (no)

Ask | Each molecule tested received a call. Report the one for `O=C(O)[C@]1(Cc2cccc(Nc3nccs3)n2)CC[C@@H](Oc2cccc(Cl)c2F)CC1` .
Reply | 0 (no)

Ask | Each molecule tested received a call. Report the one for `Cc1cc(-c2cc(O)ccc2Cl)cc2nnc(Nc3ccc(OCCN4CCCC4)cc3)nc12` .
Reply | 0 (no)

Ask | Each molecule tested received a call. Report the one for `CNS(=O)(=O)Nc1nccc(Cc2c(C)c3ccc(Oc4ncccn4)cc3oc2=O)c1F` .
Reply | 0 (no)

Ask | Each molecule tested received a call. Report the one for `CC[C@@H]1C(=O)N(C)c2cnc(Nc3ccc(C(=O)N[C@H]4CC[C@H](N5CCN(CC6CC6)CC5)CC4)cc3OC)nc2N1C(C)C` .
Reply | 0 (no)

Ask | Each molecule tested received a call. Report the one for COC(=O)[C@@]1(O)C[C@H]2O[C@]1(C)n1c3ccccc3c3c4c(c5c6ccccc6n2c5c31)C(=O)NC4 [K-252A] .
Reply | 1 (yes)

Ask | Each molecule tested received a call. Report the one for CN1N=C(N)c2cn([C@@H]3O[C@H](COP(=O)(O)O)[C@@H](O)[C@H]3O)c3ncnc1c23 [TRICIRIBINE PHOSPHATE] .
Reply | 0 (no)

Ask | Each molecule tested received a call. Report the one for `C[C@@H](Nc1cc(F)cc(F)c1)c1cc(C(=O)N(C)C)cc2c(=O)cc(N3CCOCC3)oc12` .
Reply | 0 (no)

Ask | Each molecule tested received a call. Report the one for `CNC(=O)c1ccc(-c2cnc3ncc(Cc4ccc5ncccc5c4)n3n2)cc1F` .
Reply | 0 (no)
